Biological target: T1, PUF4 RNA-binding domain (Saccharomyces cerevisiae, UniProt P25339 537-888)
T1 sequence: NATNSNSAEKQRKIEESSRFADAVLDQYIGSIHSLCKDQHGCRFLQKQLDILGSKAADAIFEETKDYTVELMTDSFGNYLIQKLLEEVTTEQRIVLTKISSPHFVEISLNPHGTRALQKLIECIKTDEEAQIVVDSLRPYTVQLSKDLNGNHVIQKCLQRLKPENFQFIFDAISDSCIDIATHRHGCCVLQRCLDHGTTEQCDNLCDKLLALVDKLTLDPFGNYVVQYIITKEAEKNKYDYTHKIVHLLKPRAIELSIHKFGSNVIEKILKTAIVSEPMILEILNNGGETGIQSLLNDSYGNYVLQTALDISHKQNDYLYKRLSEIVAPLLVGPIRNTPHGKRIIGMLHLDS
Assay: Mg; RNA-MaP; 20 mM Na-HEPES pH 7.4, 30 mM KOAc, 0.75 mM MgCl2, 0.1% Tween-20, 5% glycerol, 0.1 mg/mL BSA, 2 mM DTT; 25 C; 0.0125-409.6 nM protein
Details: tags: N-His6-TEV cleaved; C-SNAP kept, Cy3B-labelled; label: tethered on chip by stalled RNA polymerase
readout_label: pKd
Hey, just a heads up that pKd is the negative log base 10 of the concentration in molar.

binder	pKd
UCUCUUUCCUGUAUUAUUAUCUCUU (ssRNA) [Ie_S1_P5E.1_K5.1_C5.1_H5.1_[+1CCT]_A5.1_F5.1_T5.1]	8.10

Next item in the queue.
query: # input binder: Id_ii_S2_P5E.3_K5.2_C5.2_[C-2G]_H5.2_A5.1_F5.1_T5.2_[A12C] (ssRNA) RNA: UUUGAUUAAUAUGAUAUCGUUCUUUCUGUUAUAUUAUUAUCUUCUUUCUCGAUAUCAUAUUAAUCUUU ; wanted: its pKd
result: 7.79
